Below is a list of entries, each paired with its recorded z-score value.
# Test Method Notes: E. coli DRC41 culture turbidity changes, primary screen, E. coli filamentation inducer project, strain DRC41, OD650, 48 h (AID 1152);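 also: E. coli MC1000 strain DRC41 lacking acrAB efflux pump and sulA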
# Reported Conditions: E. coli DRC41 (acrAB sulA), higher = more signal, called active from +8 up or from −8 down
Assay Metric: z-score

>>> print(df.to_string())
                            substance_smiles  meas_value
 0  COc1ccc(CCN2C(=O)[C@@]3(c4ccc([N+](=O)[O-])cc4)CC(=O)N(CC45CC6CC(CC(C6)C4)C5)[C@@H]3c3ccc(CO)cc32)cc1       0.683
 1  C=CCC1=C[C@H]2[C@H]([C@@H]3C=C[C@]2(CC=C)C(=O)[C@]32CO2)[C@@]2(CO2)C1=O        2.45
 2  COC(=O)[C@@]1(Cc2ccccc2)[C@H]2c3cc(C(=O)N4CCCC4)n(CCN4CNCC4=O)c3C[C@H]2CN1C(=O)c1ccccc1        -1.1
 3  CCN1C(C)=C(C(=O)OC)[C@@H](c2ccccc2)N2C(=O)[C@@]3(C(=O)OC)O[C@@]12[C@@H]1C(=O)N(C)C(=O)[C@@H]13      -0.871
 4  CCCC=C(CCC)[C@@H](NS(=O)(=O)c1cccc(C(F)(F)F)c1)c1ccc(C(=O)OC)cc1       -0.77
 5  C[C@@H]1CC[C@H]2C(=O)N3CCC[C@H]3C(=O)N2[C@H]1c1ccc(Br)cc1        1.29
 6  C=C(CCCC)/C(=C/C[C@@H](OC(=O)c1ccncc1)c1cccc(OCCO)c1)c1cc(C(=O)OC)ccc1OC        1.37
 7  C=CCN1C(=O)[C@@]2(Cc3ccccc3)N=C(c3ccc(OCCCO)cc3)O[C@H]2c2ccccc21      0.0648
 8  CO[C@H]1O[C@H](CO)[C@@H](OC(=O)CCc2ccccc2)[C@@H]2OC(=O)[C@H](Cc3cccc(Br)c3)C/C=C/C[C@@H](Cc3cccc(Br)c3)C(=O)O[C@@H]12         3.1
 9  C=C(/C(=C/C[C@@H](OC(=O)c1ccncc1)c1ccc(CO)o1)c1cnc2ccccc2c1)C(C)C       0.767
10  CCOC(=O)C[C@H]1[C@H](OC(=O)c2ccccc2-c2ccccc2)[C@@H](NC(=O)C2CCCCC2)c2cc(OCCCO)ccc2N1C(=O)c1ccccc1        1.99

----------
# Assay System: Left-right determination factor 2 (Homo sapiens) (UniProt O00292)
# Sequence (O00292 whole entry, looked up): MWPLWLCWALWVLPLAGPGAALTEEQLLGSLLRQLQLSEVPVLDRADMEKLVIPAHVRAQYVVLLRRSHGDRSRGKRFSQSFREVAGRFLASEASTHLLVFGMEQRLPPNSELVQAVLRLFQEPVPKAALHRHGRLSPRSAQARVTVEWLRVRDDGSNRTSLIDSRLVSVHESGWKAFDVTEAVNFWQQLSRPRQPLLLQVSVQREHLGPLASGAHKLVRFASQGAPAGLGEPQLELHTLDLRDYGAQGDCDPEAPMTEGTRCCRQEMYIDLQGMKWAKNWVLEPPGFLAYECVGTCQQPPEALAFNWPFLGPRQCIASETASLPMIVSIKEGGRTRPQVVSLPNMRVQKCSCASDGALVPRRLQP
# Test Method Notes: LEFTY2 binders on small-molecule microarrays, primary screen, biochemical, small-molecule microarray, 635 nm fluorescence scan (AID 1110)
# Reported Conditions: LEFTY2 binding, higher = more signal
Assign true (1) whenever composite z-score does not fall below -0.1; assign false (0) whenever it does.

Compound	Cat
COCCOC(=O)N1C(=O)[C@@]2(c3cc(C#CCNC(N)=O)ccc31)[C@H](c1ccc(OCCO)cc1)N1[C@H](c3ccccc3)[C@H](c3ccccc3)OC(=O)[C@H]1[C@@H]2C(=O)N1CCCCCCC1	false (0)
CO[C@H]1COC(=O)[C@H](Cc2ccccc2)NC(=O)CC=C[C@@H](C)[C@H](OC)COC(=O)CC=C[C@@H]1C	true (1)
Cc1ccc(S[C@]2(C(=O)NCCCN(C)C)CC(=O)N(C3CCCCC3)[C@@H]2c2ccc(CO)cc2I)cc1	false (0)
[N-]=[N+]=Nc1ccccc1C[C@@]1(C(=O)N2CCOCC2)N=C(c2ccc(OCCCO)cc2)O[C@@H]1c1ccccc1N=[N+]=[N-]	true (1)
Cc1ccc(S[C@]2(C(=O)O)CC(=O)N(Cc3ccccc3)[C@@H]2c2ccc(CO)cc2)cc1	false (0)
CO[C@H]1COC(=O)[C@@H](OCc2ccccc2)C=C[C@H](C)[C@@H](OC)COC(=O)[C@H](OCc2ccccc2)C=C[C@@H]1C	true (1)
C=CCN1C(=O)[C@@]2(O[C@@H](CCn3cc([C@H](O)c4ccccc4)nn3)[C@H]([Si](C)(C)c3ccc(OC)cc3)[C@H]2C)c2cc(N3CCOC3=O)ccc21	false (0)
COC(=O)C1=C(C)N(Cc2ccccc2)c2c(C(=O)OC)c(C(=O)OC)c(C(=O)OC)c(=O)n2[C@@H]1c1ccccc1	true (1)
C/C(=N\O)C(=O)NCCCCCNC(=O)OCc1ccccc1	true (1)
CC(C)N1CC=CC23O[C@@H]4/C=C\CCCOC(=O)C4[C@H]2C(=O)N(CCCCCO)[C@@H]3C1=O (some centres undefined)	false (0)
COCCOC(=O)N1C(=O)[C@@]2(c3cc(C#CC4(O)CCCCCC4)ccc31)[C@H](C(=O)N1CCCCCCC1)[C@H]1C(=O)O[C@H](c3ccccc3)[C@H](c3ccccc3)N1[C@@H]2c1ccc(O)cc1	true (1)
NC(=O)NCC#Cc1ccc2c(c1)[C@]1(C(=O)N2)[C@H](C(N)=O)[C@H]2C(=O)O[C@H](c3ccccc3)[C@H](c3ccccc3)N2[C@@H]1c1ccccc1OCCO	true (1)
CC(=O)NCCCC[C@@H]1NC(=O)[C@@H]2C[C@H](C(=O)NCCCCCCN(C)C)[C@H](c3ccc(O)cc3)N2C1=O	true (1)
CC(=O)NCCCC[C@@H]1NC(=O)[C@@H]2C[C@H](C(=O)NCCCCCNC(=O)CS)[C@H](c3ccc(O)cc3)N2C1=O	false (0)
